- target.or.test.system: JAK2 (Homo sapiens, UniProt O60674)
- Sequence (O60674 whole entry, species assumed): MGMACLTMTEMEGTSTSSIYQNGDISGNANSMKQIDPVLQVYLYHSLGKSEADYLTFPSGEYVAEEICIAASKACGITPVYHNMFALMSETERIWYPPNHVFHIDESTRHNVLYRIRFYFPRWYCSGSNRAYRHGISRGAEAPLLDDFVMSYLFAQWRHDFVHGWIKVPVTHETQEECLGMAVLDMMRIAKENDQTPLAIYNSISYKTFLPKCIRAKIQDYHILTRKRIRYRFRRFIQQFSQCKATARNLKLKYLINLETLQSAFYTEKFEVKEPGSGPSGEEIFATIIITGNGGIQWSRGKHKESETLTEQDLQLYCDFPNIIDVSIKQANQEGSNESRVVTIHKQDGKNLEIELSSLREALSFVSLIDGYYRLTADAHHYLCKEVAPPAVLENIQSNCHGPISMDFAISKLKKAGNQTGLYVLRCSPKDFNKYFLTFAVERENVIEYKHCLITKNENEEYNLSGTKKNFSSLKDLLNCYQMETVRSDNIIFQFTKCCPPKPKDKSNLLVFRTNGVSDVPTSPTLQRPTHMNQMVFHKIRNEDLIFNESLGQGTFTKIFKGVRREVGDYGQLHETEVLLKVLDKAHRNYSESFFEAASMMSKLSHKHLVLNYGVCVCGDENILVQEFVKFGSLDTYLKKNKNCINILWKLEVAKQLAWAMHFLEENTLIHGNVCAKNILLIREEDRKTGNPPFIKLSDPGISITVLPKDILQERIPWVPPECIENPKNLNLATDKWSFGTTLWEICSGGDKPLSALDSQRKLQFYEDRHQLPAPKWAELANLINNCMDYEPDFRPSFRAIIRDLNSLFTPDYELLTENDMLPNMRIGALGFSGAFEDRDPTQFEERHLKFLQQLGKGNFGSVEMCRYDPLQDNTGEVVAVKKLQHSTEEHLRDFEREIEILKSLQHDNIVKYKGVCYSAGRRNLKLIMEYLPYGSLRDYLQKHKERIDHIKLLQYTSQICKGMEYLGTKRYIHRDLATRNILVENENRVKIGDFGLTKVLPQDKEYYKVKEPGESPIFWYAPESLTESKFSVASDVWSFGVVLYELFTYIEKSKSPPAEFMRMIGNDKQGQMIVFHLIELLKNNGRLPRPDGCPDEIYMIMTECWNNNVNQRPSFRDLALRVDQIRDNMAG
- assay: JAK2 inhibition assay (radioactive enzyme assay, as for JAK3)
- Assay type: biochemical
- condition.details: average Ki if more than one value determined
# Ki per record follows

{"molecule": "Clc1cnc2[nH]cc(-c3ccc4ncccc4c3)c2c1", "Ki": "500 to 5000 nM"}
{"molecule": "O[C@H]1CCCC[C@@H]1Nc1cccc(-c2c[nH]c3ncc(Cl)cc23)n1", "Ki": "< 500 nM"}
{"molecule": "CC(=O)N1CCCN(c2cccc(-c3c[nH]c4ncc(C(=O)O)cc34)n2)CC1", "Ki": "> 5000 nM"}

Quick one: Ki of CN1C2CCC1CN(c1cccc(-c3c[nH]c4ncc(Cl)cc34)n1)CC2 (centres unmarked) ?
< 500 nM

Quick check: Ki of C=C(C)C(=O)Nc1cnc2[nH]cc(-c3cccc(N4C[C@@H](C)N(C(C)=O)[C@@H](C)C4)n3)c2c1 ?
< 500 nM

GET /values?readout=Ki&item= COc1cccc(-c2c[nH]c3ncc(Cl)cc23)n1
< 500 nM

Need Ki of C[C@@H]1CCN(Cc2ccccc2)CC1N(C)c1cc(-c2c[nH]c3ncccc23)ncn1 (some centres unmarked) , thanks.
500 to 5000 nM

Reported Ki, molecule CC(=O)N1[C@H](C)CN(c2ccc(-c3nnn[nH]3)c(-c3c[nH]c4ncc(Cl)cc34)n2)C[C@@H]1C : ____
500 to 5000 nM
